These entries and their values trace back to patent US11590089B2.

- study-system: α2A-AR (Homo sapiens, UniProt P08913)
- Sequence (P08913 whole entry, species assumed): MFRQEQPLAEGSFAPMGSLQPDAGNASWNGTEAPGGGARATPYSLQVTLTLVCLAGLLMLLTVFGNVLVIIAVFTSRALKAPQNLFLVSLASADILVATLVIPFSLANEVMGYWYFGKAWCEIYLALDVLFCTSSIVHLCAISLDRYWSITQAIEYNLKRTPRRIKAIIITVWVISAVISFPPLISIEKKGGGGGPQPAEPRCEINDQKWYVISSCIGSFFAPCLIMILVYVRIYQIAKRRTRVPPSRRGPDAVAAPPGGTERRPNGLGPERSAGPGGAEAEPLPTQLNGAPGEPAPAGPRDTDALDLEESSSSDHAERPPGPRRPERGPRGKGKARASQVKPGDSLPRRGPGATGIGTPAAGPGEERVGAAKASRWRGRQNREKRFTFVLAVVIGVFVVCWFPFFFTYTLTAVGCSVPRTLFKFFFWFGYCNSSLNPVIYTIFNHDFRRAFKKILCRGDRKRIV
- protocol-description: radioligand binding assay, α2A-AR, [3H]RX821002
- assay-context: radioligand [3H]RX821002; values given as a range are from screening experiments with a low number of repeats
Structures can show the parent of a compound that is named as a salt.
property: Ki (µM)

| molecule | property | endpoint-result |
| --- | --- | --- |
| N[C@@H]1CCc2c(ccc(O)c2O)[C@H]1O [AS446] | Ki | 15 |
| CN[C@@H]1CCc2c(ccc(O)c2O)[C@H]1O [AS443] | Ki | 13 |
| Oc1ccc2c(c1O)CC[C@@H](NCC1CCC1)[C@@H]2O [LM 110] | Ki | 9.9 |
| Oc1ccc2c(c1O)CC[C@@H](NCCF)[C@@H]2O [LM 80] | Ki | 30 |
| CC(C)N[C@@H]1CCc2c(ccc(O)c2O)[C@H]1O [AS424A, TFA] | Ki | 71 |

====

Consider the following compounds and their measured β-arrestin-2 recruitment β1-AR Emax readings.
- study-system: β1-AR (Homo sapiens, UniProt P08588)
- protocol-description: β-arrestin-2 recruitment assay at β1-AR
- Type: cell-based
- assay-context: relative to norepinephrine
- Sequence (P08588 whole entry): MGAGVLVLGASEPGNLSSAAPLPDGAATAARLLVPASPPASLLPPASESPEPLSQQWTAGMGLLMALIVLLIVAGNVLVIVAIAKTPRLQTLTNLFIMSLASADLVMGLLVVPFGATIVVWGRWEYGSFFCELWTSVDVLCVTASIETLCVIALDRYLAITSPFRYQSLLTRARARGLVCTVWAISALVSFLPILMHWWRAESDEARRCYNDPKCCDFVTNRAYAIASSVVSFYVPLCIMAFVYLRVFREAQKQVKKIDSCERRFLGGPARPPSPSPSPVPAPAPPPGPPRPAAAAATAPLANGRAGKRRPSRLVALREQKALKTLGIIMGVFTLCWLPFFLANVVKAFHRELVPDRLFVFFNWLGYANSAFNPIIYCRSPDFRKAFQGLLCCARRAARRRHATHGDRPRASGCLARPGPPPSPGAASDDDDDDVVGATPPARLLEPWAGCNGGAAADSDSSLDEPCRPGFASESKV
- Sequence (P32121 whole entry partner): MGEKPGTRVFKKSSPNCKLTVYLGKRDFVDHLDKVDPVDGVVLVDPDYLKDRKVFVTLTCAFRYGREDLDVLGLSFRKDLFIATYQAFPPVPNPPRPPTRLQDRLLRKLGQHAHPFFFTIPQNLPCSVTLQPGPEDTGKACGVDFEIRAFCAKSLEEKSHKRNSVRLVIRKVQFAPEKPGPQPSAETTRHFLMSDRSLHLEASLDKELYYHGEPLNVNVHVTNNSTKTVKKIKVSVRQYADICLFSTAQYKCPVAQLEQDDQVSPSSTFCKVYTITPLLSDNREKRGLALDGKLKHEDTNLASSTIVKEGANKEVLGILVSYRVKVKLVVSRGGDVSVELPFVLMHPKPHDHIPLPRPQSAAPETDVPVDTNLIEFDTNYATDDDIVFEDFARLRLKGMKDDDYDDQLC
property: β-arrestin-2 recruitment β1-AR Emax (% norepinephrine)

| compound | unit-string | relation-operator | endpoint-result |
| --- | --- | --- | --- |
| Oc1ccc2c(c1O)CC[C@@H](NCCF)[C@@H]2O [LM 80] | % norepinephrine | = | 81 |
| Oc1ccc2c(c1O)CC[C@@H](NC1COC1)[C@@H]2O [LM 113] | % norepinephrine | = | 20 |
| Oc1ccc2c(c1O)CC[C@@H](NC(CF)CF)[C@@H]2O [LM 103] | % norepinephrine | = | 18 |
| N[C@@H]1CCc2cc(O)c(O)cc2C1 [AS LM16] | % norepinephrine | < | 5 |

====

- study-system: β2-AR (Homo sapiens, UniProt P07550)
- protocol-description: β-arrestin-2 recruitment assay at β2-AR
- Format: cell-based
- assay-context: β-arrestin-2 recruitment β2-AR EC50, n.d. = could not be determined because of lack of activity; ranges from screening experiments with a low number of repeats
- Sequence (P07550 whole entry, one chain of several): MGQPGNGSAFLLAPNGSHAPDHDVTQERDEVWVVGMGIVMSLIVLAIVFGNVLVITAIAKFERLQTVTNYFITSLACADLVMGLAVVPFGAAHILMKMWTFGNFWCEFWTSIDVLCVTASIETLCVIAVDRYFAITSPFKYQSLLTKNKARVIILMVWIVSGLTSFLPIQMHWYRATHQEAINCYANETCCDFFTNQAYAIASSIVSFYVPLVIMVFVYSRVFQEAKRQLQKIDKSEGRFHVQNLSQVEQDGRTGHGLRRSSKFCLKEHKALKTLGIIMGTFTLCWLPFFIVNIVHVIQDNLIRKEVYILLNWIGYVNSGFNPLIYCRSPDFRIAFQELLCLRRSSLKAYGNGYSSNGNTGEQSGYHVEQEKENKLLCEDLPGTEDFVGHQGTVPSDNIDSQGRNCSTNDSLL
pEC50: −log10 of the molar value. Structures can show the parent of a compound that is named as a salt.
Reported pEC50 values for a set of compounds
property: pEC50

| compound | study-system | property | endpoint-result |
| --- | --- | --- | --- |
| CC(C)N[C@H]1CCc2c(ccc(O)c2O)[C@H]1O [AS424B, TFA] | β2-AR (Homo sapiens, UniProt P07550) | pEC50 | 6.46 |
| N[C@@H]1CCc2c(ccc(O)c2O)[C@H]1O | β2-AR (Homo sapiens, UniProt P07550) | pEC50 | 7.00 |
| CC(C)N[C@@H]1CCc2c(ccc(O)c2O)[C@@H]1O | β2-AR (Homo sapiens, UniProt P07550) | pEC50 | 5.92 |
| Oc1ccc2c(c1O)CC[C@@H](NCC1CCC1)[C@@H]2O | β2-AR (Homo sapiens, UniProt P07550) | pEC50 | 7.10 |
| CC(C)N[C@@H]1CCc2c(ccc(O)c2O)[C@H]1O [AS424A, TFA] | β2-AR (Homo sapiens, UniProt P07550) | pEC50 | 7.62 |

====

As shown below, each of these molecules has a reported pKi value.
- study-system: β1-AR (Homo sapiens, UniProt P08588)
- protocol-description: radioligand binding assay, β1-AR, [3H]CGP12177
- assay-context: radioligand [3H]CGP12177; values given as a range are from screening experiments with a low number of repeats; read-out: Ki β1-AR [3H]CGP12177
- Sequence (P08588 whole entry): as the sequence (P08588 whole entry) above
pKi: −log10 of the molar value.

| molecule | relation-operator | pKi |
| --- | --- | --- |
| Oc1ccc2c(c1O)CC[C@@H](NC1CCCC1)[C@H]2O [JS 3-65] | < | 4.30 |
| N[C@@H]1CCc2c(ccc(O)c2O)[C@H]1O [AS446] | = | 4.80 |
| CNC1CCc2c(ccc(O)c2O)C1 (racemic) [AS LM33] | = | 4.05 |
| N[C@H]1CCc2cc(O)c(O)cc2C1 [AS LM15] | = | 4.51 |
| O=C(O)C(F)(F)F.Oc1ccc2c(c1O)CC[C@@H](NC1CCCC1)[C@@H]2O [JS 3-159] | = | 5.15 |

====

- study-system: UniProt:P08588
- protocol-description: radioligand binding assay, β1-AR, [3H]CGP12177
- assay-context: Ki β1-AR [3H]CGP12177, radioligand [3H]CGP12177; values given as a range are from screening experiments with a low number of repeats
pKi: −log10 of the molar value. Structures can show the parent of a compound that is named as a salt.
pKi overview

| molecule | relation-operator | pKi |
| --- | --- | --- |
| CC(C)N[C@@H]1CCc2c(ccc(O)c2O)[C@@H]1O [JS 3-99] | = | 4.31 |
| CC(C)N[C@H]1CCc2c(ccc(O)c2O)[C@H]1O [AS424B, TFA] | = | 4.62 |
| CC(C)N[C@@H]1CCc2c(ccc(O)c2O)[C@H]1O [AS424A, TFA] | = | 5.68 |
| CC(C)N[C@H]1CCc2c(ccc(O)c2O)[C@@H]1O [JS 3-97] | < | 4.30 |

====

- study-system: β2-AR (Homo sapiens)
- protocol-description: β-arrestin-2 recruitment assay at β2-AR
- Assay type: cell-based
- assay-context: n.d. = could not be determined because of lack of activity; ranges from screening experiments with a low number of repeats; read-out: β-arrestin-2 recruitment β2-AR EC50
pEC50: −log10 of the molar value.

| molecule | pEC50 |
| --- | --- |
| NC1CCc2c(ccc(O)c2O)C1 (single isomer, unassigned) [AS LM27] | 5.68 |
| CNC1CCc2cc(O)c(O)cc2C1 (racemic) | 4.92 |

====

- study-system: β2-AR (Homo sapiens, UniProt P07550)
- protocol-description: radioligand binding assay, β2-AR, [3H]CGP12177
- assay-context: radioligand [3H]CGP12177; values given as a range are from screening experiments with a low number of repeats; read-out: Ki β2-AR [3H]CGP12177
- Sequence (P07550 whole entry): as the sequence (P07550 whole entry, one chain of several) above
pKi: −log10 of the molar value. Counter-ions that a name gives are not always drawn.
Quick reference for pKi among some molecules
property: pKi

| molecule | study-system | relation-operator | endpoint-result |
| --- | --- | --- | --- |
| N[C@@H]1CCc2cc(O)c(O)cc2C1 | β2-AR (Homo sapiens, UniProt P07550) | = | 4.12 |
| CNC1CCc2cc(O)c(O)cc2C1 (racemic) | β2-AR (Homo sapiens, UniProt P07550) | = | 4.10 |
| Oc1ccc2c(c1O)CC[C@@H](NC1CCCC1)[C@H]2O | β2-AR (Homo sapiens, UniProt P07550) | = | 5.60 |
| CC(C)N[C@H]1CCc2cc(O)c(O)cc2[C@H]1O (relative stereo) [JS 3-71, trifluoroacetate] | β2-AR (Homo sapiens, UniProt P07550) | < | 4.30 |
| Oc1ccc2c(c1O)CC[C@@H](NC(CF)CF)[C@@H]2O | β2-AR (Homo sapiens, UniProt P07550) | = | 6.20 |
| CN[C@@H]1CCc2c(ccc(O)c2O)[C@H]1O | β2-AR (Homo sapiens, UniProt P07550) | = | 6.85 |
| Oc1ccc2c(c1O)CC[C@H](NC1CCCC1)[C@@H]2O | β2-AR (Homo sapiens, UniProt P07550) | < | 4.70 |
| Oc1ccc2c(c1O)CC[C@@H](NCCCF)[C@@H]2O | β2-AR (Homo sapiens, UniProt P07550) | = | 7.01 |
| NC1CCc2c(ccc(O)c2O)C1 (single isomer, unassigned) [AS LM27] | β2-AR (Homo sapiens, UniProt P07550) | = | 5.12 |

====

- study-system: •1A-AR (Homo sapiens, UniProt P35348)
- Sequence (P35348 whole entry): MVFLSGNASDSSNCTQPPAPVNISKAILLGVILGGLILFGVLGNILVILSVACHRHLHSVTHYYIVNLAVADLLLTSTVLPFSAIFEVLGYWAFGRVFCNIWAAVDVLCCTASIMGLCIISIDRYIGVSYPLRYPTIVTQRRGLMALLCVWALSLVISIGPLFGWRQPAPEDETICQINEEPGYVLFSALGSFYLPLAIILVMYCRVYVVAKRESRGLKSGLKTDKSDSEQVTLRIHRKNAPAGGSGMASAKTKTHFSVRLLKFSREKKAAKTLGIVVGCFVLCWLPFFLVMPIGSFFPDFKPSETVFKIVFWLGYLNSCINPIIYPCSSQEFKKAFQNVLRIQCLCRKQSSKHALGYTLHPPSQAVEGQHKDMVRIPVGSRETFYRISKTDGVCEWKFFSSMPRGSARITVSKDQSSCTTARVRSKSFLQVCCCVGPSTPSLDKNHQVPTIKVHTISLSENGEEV
- protocol-description: radioligand binding assay, α1A-AR, [3H]prazosin
pKi: −log10 of the molar value.
Listed compounds paired with reported pKi
property: pKi

| structure-smiles | study-system | property | endpoint-result |
| --- | --- | --- | --- |
| N[C@@H]1CCc2c(ccc(O)c2O)[C@H]1O | •1A-AR (Homo sapiens, UniProt P35348) | pKi | 4.74 |
| Oc1ccc2c(c1O)CC[C@@H](NCCCF)[C@@H]2O | •1A-AR (Homo sapiens, UniProt P35348) | pKi | 4.64 |
| Oc1ccc2c(c1O)CC[C@@H](NCC1CCC1)[C@@H]2O | •1A-AR (Homo sapiens, UniProt P35348) | pKi | 5.40 |
